test system: UACC-257 melanoma; assay: NCI tumour cell line growth inhibition, 48 h
What TGI was measured for each of the following?

**Query** Bench note: what TGI did NCCCCCC(CCN)SCC1OC(n2cnc3c(N)ncnc32)C(O)C1O (stereo unspecified) show?
**Result** > 1500 µM

**Query** Bench note: what TGI did `COc1ccc2c(c1)/C(=C/c1c(O)[nH]c(=S)[nH]c1=O)C=N2` show?
**Result** > 100 µM

**Query** Bench note: what TGI did `Cc1nnc2n1N=C(c1cc(F)c(Cl)cc1Cl)/C(=C/c1ccc(-c3ccc([N+](=O)[O-])cc3)o1)S2` show?
**Result** > 100 µM

**Query** Bench note: what TGI did COc1cccc(OC)c1C1ON=C(c2ccccc2)N1C12CC3CC(CC(C3)C1)C2 (stereo unspecified) show?
**Result** > 100 µM

**Query** Bench note: what TGI did `Cc1ccc(S(=O)(=O)NNC(=O)Nc2cccc(C(F)(F)F)c2)cc1` show?
**Result** > 100 µM

**Query** Bench note: what TGI did N#CC(C(=O)CCCC(=O)Nc1ccccc1[N+](=O)[O-])c1c(Cl)cccc1Cl (stereo unspecified) show?
**Result** > 100 µM

**Query** Bench note: what TGI did C/C=C1/CC(C(=O)OC)N(C(=O)OCc2ccccc2)C1=S (stereo unspecified) show?
**Result** > 100 µM

**Query** Bench note: what TGI did `COc1cccc2c1nc(C(F)F)n2-c1nc(-c2ccc(NS(=O)(=O)CCN(C)C)cc2)nc(N2CCOCC2)n1` show?
**Result** 1.72 µM

**Query** Bench note: what TGI did `Cc1cc(N(CCC#N)CCC#N)ccc1/C=C(\NC(=O)/C=C/c1ccccc1)C(=O)N=[N+]=[N-]` show?
**Result** > 100 µM

**Query** Bench note: what TGI did OCC(O)COCn1cc(Cn2ncc3c(SCc4ccccc4)ncnc32)nn1 (stereo unspecified) show?
**Result** > 100 µM

**Query** Bench note: what TGI did `CCOC(=O)c1noc2c1CCc1c-2cn(Cc2ccc(OC)cc2)c1-c1cc(OC)c(OC)c(OC)c1` show?
**Result** > 100 µM

**Query** Bench note: what TGI did COc1cc(/C=C2\CC3C4CC=C5CC(OC(C)=O)CC[C@]5(C)C4CC[C@]3(C)C2=O)ccc1OCCN1CCCC1 (stereo partly specified) show?
**Result** 4.2 µM

**Query** Bench note: what TGI did CC(=O)OCC1C(=O)OCC1C(=O)N1Cc2cc3ccccc3nc2C1 (stereo unspecified) show?
**Result** 8.64 µM

**Query** Bench note: what TGI did `CCCCNC(=O)OCCN=c1c2ccccc2ccc2ccccc12` show?
**Result** > 100 µM

**Query** Bench note: what TGI did `Cc1c(Cl)cccc1C(=O)Nc1nc2c(s1)CN(C(=O)Nc1cccc(C(F)(F)F)c1)CC2` show?
**Result** > 50 µM

**Query** Bench note: what TGI did `N/N=c1/nc2n(c3ncccc13)C=CNN2` show?
**Result** > 100 µM

**Query** Bench note: what TGI did `NS(=O)(=O)c1ccc(NC(=S)NC(=O)Nc2ccc(Cl)c(Cl)c2)cc1` show?
**Result** 41.4 µM

**Query** Bench note: what TGI did C#CCOC(=O)C(N)CC(N)=O (stereo unspecified) show?
**Result** > 100 µM

**Query** Bench note: what TGI did `CC(C)(C)C(=O)/C=C(\OB(F)F)C(C)(C)C` show?
**Result** > 100 µM

**Query** Bench note: what TGI did `CCOc1ccc(N(C)c2ccc(/C=C/C3=[N+](C)c4ccccc4C3(C)C)cc2)cc1` show?
**Result** 0.861 µM

**Query** Bench note: what TGI did `O=C(O)CN1CCSc2ccccc2CN(CC(=O)O)CCSc2ccccc2C1` show?
**Result** > 100 µM

**Query** Bench note: what TGI did Cn1cc(C2NC(=O)c3ccccc3N2)c2ccccc21 (stereo unspecified) show?
**Result** > 100 µM

**Query** Bench note: what TGI did CC(C)(C)N(Cc1ccccc1)C(=O)/C=C\S(=O)c1ccccc1 (stereo unspecified) show?
**Result** 16.2 µM

**Query** Bench note: what TGI did COCCN(C(=O)c1ccccc1)C1CCC2(SCCS2)c2[nH]c3ccccc3c21 (stereo unspecified) show?
**Result** > 100 µM

**Query** Bench note: what TGI did `CCN(CC)CC(=O)NC1c2ccccc2Oc2ccccc21` show?
**Result** > 100 µM

**Query** Bench note: what TGI did `CN(C)c1cccc(-c2cc(=S)c3cc4c(cc3[nH]2)OCO4)c1` show?
**Result** > 100 µM

**Query** Bench note: what TGI did Clc1ccc(OCC2NC3CCC2CC3)cn1 (stereo unspecified) show?
**Result** 36 µM

**Query** Bench note: what TGI did O=C(Cc1ccccc1)NN1C(=O)C(Cl)C1c1ccc(Cl)cc1 (stereo unspecified) show?
**Result** > 100 µM

**Query** Bench note: what TGI did `N#CC(C#N)=c1c(=O)c2c3ccccc3cc3cccc1c32` show?
**Result** > 100 µM

**Query** Bench note: what TGI did `COc1ccc2c(O)c(Oc3ccc(Cl)cc3)c(=O)oc2c1` show?
**Result** > 100 µM

**Query** Bench note: what TGI did `COC(=O)c1cc2ccc(O)c(O)c2cn1` show?
**Result** 29.6 µM

###

tested on: BT-549 breast; test: NCI tumour cell line growth inhibition, 48 h
What TGI was measured for each of the following?

**Query** Bench note: what TGI did C[N+]1([O-])C2CCC1CC(OC(=O)C(CO)c1ccccc1)C2 (stereo unspecified) show?
**Result** > 100 µM

**Query** Bench note: what TGI did `O=c1[nH]c(=S)[nH]cc1CN1CCOCC1` show?
**Result** > 100 µM

**Query** Bench note: what TGI did `O=C1CSCC(=O)Nc2ccccc2N1` show?
**Result** > 100 µM

**Query** Bench note: what TGI did `Cc1c2cnccc2c(C)c2c1c1ccccc1n2CCOC(=O)c1ccccc1` show?
**Result** > 100 µM

**Query** Bench note: what TGI did `COc1ccc2c(O)c(Oc3ccc(Cl)cc3)c(=O)oc2c1` show?
**Result** > 100 µM

**Query** Bench note: what TGI did C=CC1(C)CCC2C(=CCC3C2(C)CC(O)C(O)C3(C)COC2OC(CO)C(O)C(O)C2O)C1 (stereo unspecified) show?
**Result** > 100 µM

###

system: UACC-62 melanoma; experiment: NCI tumour cell line growth inhibition, 48 h
OBSERVABLE: GI50

**Query** Bench note: what GI50 did `NS(=O)(=O)c1ccc(N(/C=C/C(=O)C(F)(F)F)CC(=O)c2ccc(F)cc2)cc1` show?
**Result** 17.6 µM

**Query** Bench note: what GI50 did `Nc1c(C(=O)Nc2cccc(Cl)c2)sc2nc3c(cc12)C(=O)CCC3` show?
**Result** 0.349 µM

**Query** Bench note: what GI50 did `O=C(NCc1cn(Cc2cccc(Oc3ccccc3)c2)nn1)c1cccnc1Nc1ccc(F)cc1` show?
**Result** 6.51 µM

**Query** Bench note: what GI50 did `O=C(N/N=C/c1ccc(Cl)cc1)c1ccc(NC(=O)c2ccccn2)cc1` show?
**Result** 24.5 µM

**Query** Bench note: what GI50 did `O=C1NC(=O)C(c2c[nH]c3ccccc23)=C1c1c[nH]c2ccccc12` show?
**Result** 12.1 µM

**Query** Bench note: what GI50 did `COc1cc(/C=C/C(=O)c2cccc(-n3cc(-c4ccccc4)[nH]c3=O)c2)cc(OC)c1OC` show?
**Result** 1.52 µM

**Query** Bench note: what GI50 did `Cn1cc(-c2ccc3nc(-c4ccc(CC(=O)Nc5cc(C(C)(C)C)no5)cc4)cnc3c2)cn1` show?
**Result** 0.0297 µM

**Query** Bench note: what GI50 did `O=C(CCCc1ccc(N(CCCl)CCCl)cc1)NCc1ccccc1` show?
**Result** 4.69 µM

###

test system: CAKI-1 renal; experiment: NCI tumour cell line growth inhibition, 48 h
What TGI was measured for each of the following?

**Query** Bench note: what TGI did C[N+]1(C)C2CC(OC(=O)C(CO)c3ccccc3)CC1C1OC12 (stereo not drawn) show?
**Result** > 100 µM

**Query** Bench note: what TGI did CC(CN1NC12CCCC2)N1NC12CCCC2 (stereo not drawn) show?
**Result** > 100 µM

**Query** Bench note: what TGI did `Nc1c(C(=O)Nc2cccc(Cl)c2)sc2nc3c(cc12)C(=O)CCC3` show?
**Result** > 100 µM

###

What TGI was measured for each of the following?
test system: SNB-75 CNS; experiment: NCI tumour cell line growth inhibition, 48 h

**Query** Bench note: what TGI did `Nc1ccccc1N` show?
**Result** > 100 µM

**Query** Bench note: what TGI did `Cc1cn2cc(-c3cccs3)nc2s1` show?
**Result** > 100 µM

**Query** Bench note: what TGI did CCC(C)N1CN(c2ccccc2)C2(CCN(CC3COc4ccccc4O3)CC2)C1=O (stereo not given) show?
**Result** > 100 µM

**Query** Bench note: what TGI did `O=C(O)c1cc(CCc2ccc(O)c(O)c2)ccc1O` show?
**Result** > 100 µM

**Query** Bench note: what TGI did CC(=O)OC(C)(C)C1CC[C@]2(C)/C=C/C(C)C[C@@H](O)/C=C(\C)CC(O)C12 (stereo not given in full) show?
**Result** > 100 µM

**Query** Bench note: what TGI did `Cc1nc2ccc(F)cc2c2c1CCS2` show?
**Result** > 100 µM

**Query** Bench note: what TGI did `O=C(O)/C=C/c1ccc(O)c(O)c1` show?
**Result** > 100 µM

**Query** Bench note: what TGI did `CC(C)=CCC[C@@H](C)[C@H]1CC[C@@]2(C)[C@@H]3CC[C@H]4C(C)(C)[C@@H](O)CC[C@@]45C[C@@]35CC[C@]12C` show?
**Result** > 100 µM

**Query** Bench note: what TGI did NCCCCCC(CCN)SCC1OC(n2cnc3c(N)ncnc32)C(O)C1O (stereo not given) show?
**Result** > 1500 µM

**Query** Bench note: what TGI did CC(C)(C)[Si](C)(C)OCC1OC(n2cnc3c(N)ncnc32)C2OC(=S)OC12 (stereo not given) show?
**Result** > 100 µM

**Query** Bench note: what TGI did CC(NCc1c(O)ccc2c(-c3ccccc3)cc(=O)oc12)C(=O)O (stereo not given) show?
**Result** > 100 µM

**Query** Bench note: what TGI did `CCC(=C(c1ccc(OCCN2CCCCC2)cc1)c1ccc(OCCN2CCCCC2)cc1)c1ccc(Cl)cc1` show?
**Result** > 16.7 µM

**Query** Bench note: what TGI did `C=C1c2nc3ccccc3n2C=C(c2ccc(OC)cc2)N1c1ccc(OCCN2CCCCC2)cc1` show?
**Result** > 100 µM

**Query** Bench note: what TGI did `COCN1C(=O)[C@@H]2CCCN2C(=O)c2cc(OC)c(Cc3ccccc3)cc21` show?
**Result** > 100 µM

**Query** Bench note: what TGI did `Cc1ccc(S(=O)(=O)n2cc(/C=C/C#N)c(-c3cn(S(=O)(=O)c4ccc(C)cc4)cc3-c3cn(S(=O)(=O)c4ccc(C)cc4)cc3/C=C/C#N)c2)cc1` show?
**Result** > 100 µM

**Query** Bench note: what TGI did `O=C(CCc1n[nH]c(=S)o1)Nc1cc(Cl)ccc1Cl` show?
**Result** > 100 µM

**Query** Bench note: what TGI did COC1=C(C(c2cc(OC)c(OC)c(OC)c2)c2cc3c(cc2OC)OCO3)C(=O)OC1 (stereo not given) show?
**Result** > 64.3 µM

**Query** Bench note: what TGI did `COC(=O)c1c(O)c(C#N)c2[nH]c3ccccc3n2c1=O` show?
**Result** > 100 µM

**Query** Bench note: what TGI did COc1cc2nc3n(c2cc1OC)C(O)c1c(Cl)nc(SC)nc1S3 (stereo not given) show?
**Result** > 68 µM

**Query** Bench note: what TGI did `Fc1ccc(Nc2nc(Cl)c3[nH]cnc3n2)cc1Cl` show?
**Result** > 100 µM

**Query** Bench note: what TGI did `O=C(CCC(=O)c1ccsc1)c1ccsc1` show?
**Result** > 100 µM

**Query** Bench note: what TGI did `COC(=NC(C)C)NC(C)C` show?
**Result** > 100 µM

**Query** Bench note: what TGI did `C/C(CN1C(=O)c2ccccc2C1=O)=N\NS(=O)(=O)c1ccc2ccccc2c1` show?
**Result** > 100 µM

**Query** Bench note: what TGI did `CC(C)OC(=O)NCCn1cc(-c2ccccc2)nn1` show?
**Result** > 100 µM

**Query** Bench note: what TGI did `O=C(CNc1ccccc1[N+](=O)[O-])Nn1cnc2ccc(S(=O)(=O)Nc3ccccc3[N+](=O)[O-])cc2c1=O` show?
**Result** > 100 µM
